Entry source: PubChem BioAssay

Attribute: composite z-score
target entity: Torsin-1A (Homo sapiens)
protocol: torsin A binders from cell lysate, primary screen, small-molecule microarray, wild-type, 635/667 nm (AID 1149)
condition parameters: COS7 hTOR1A-WT lysate, 635 nm fluorescence, higher = more signal

compound	composite z-score
C=CC1c2cc(O)c(OC)cc2CCN1Cc1cc2c(cc1Br)OCO2 (configuration not stated)	1.34
COCCCNC(=O)[C@@]1(Cc2ccccc2N=[N+]=[N-])N=C(c2ccc(OCCCO)cc2)O[C@H]1c1ccccc1	3.67
C[C@@H]1ON(c2ccc(C(=O)OC(C)(C)C)cc2)[C@H](c2ccc(O)cc2)[C@H]1C(=O)N1C(=O)OC[C@H]1Cc1ccccc1	0.438
CN(C)C(=O)C1N=C(c2ccc(OCCCO)cc2)N(c2ccccc2)O1 (configuration not stated)	1.19
CCOC(=O)C[C@H]1[C@H](OC(=O)c2cc3ccccc3oc2=O)[C@@H](NC(=O)Cc2ccc(OC)cc2)c2cc(OCCCO)ccc2N1C(=O)c1ccc2ccccc2n1	0.0518
CCCCN1CC=CC23O[C@@H]4/C=C\CCC(C)OC(=O)C4[C@H]2C(=O)N(C(CO)C(C)C)[C@@H]3C1=O (some centres not stated)	0.624
COc1ccc([Si](C)(C)[C@@H]2[C@@H](CC(=O)N(CCO)Cc3ccccc3)O[C@]3(C(=O)N(Cc4cccc(N5C(=O)c6cccc7cccc5c67)c4)c4ccccc43)[C@H]2C)cc1	-0.0207

====

composite z-score: recorded values
protocol: binders of probe aFST on microarray, primary screen, stem cell growth factor project, biochemical, small-molecule microarray, fluorescence 635/667 (AID 1086);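 note: score merges 667 nm fluorescence with signal-to-noise of each printed compound spot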
condition parameters: higher = more signal

compound	composite z-score
[N-]=[N+]=Nc1ccccc1C[C@]1(C(=O)N2CCOCC2)N=C(c2ccc(OCCCO)cc2)O[C@H]1c1ccccc1	1.29
C=C(C)c1cc2c(c(CCCCCC)n1)[Si](C(C)C)(C(C)C)OC2	-0.437
COc1cc2c(cc1O)C(C)N(Cc1ccc([N+](=O)[O-])o1)CC2 (stereo not drawn)	0.401
C=C(/C(=C/C[C@H](OC(C)=O)c1ccccc1OCCO)c1cc(C(=O)OC)ccc1OC)C(C)C	-0.36
COc1ccc(CN(C2=CC[C@@]3(C(N)=O)C(=O)C(Cl)=C(Cl)C(=O)[C@@]3(C#N)C2)S(=O)(=O)c2ccc(Br)cc2)cc1	0.343
COCCOC(=O)N1C(=O)[C@@]2(c3cc(C#CCNC(N)=O)ccc31)[C@H](C(=O)N1CCc3cc(OC)c(OC)cc3C1)[C@H]1C(=O)O[C@H](c3ccccc3)[C@H](c3ccccc3)N1[C@@H]2c1ccccc1OCCO	0.31
C=CC[C@@]1(C(=O)N2CCOCC2)N=C(c2ccc(OCCCO)cc2)O[C@@H]1c1ccccc1CN=[N+]=[N-]	1.17
O=C1NC(=O)C2C1C=CC(C(O)c1ccco1)N2Nc1ccccn1 (stereo not drawn)	0.055

====

protocol: small-molecule binders of probe aInhba, primary screen, biochemical, small-molecule microarray, 635/667 nm fluorescence (AID 1148);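 note: score merges 667nm spot fluorescence with signal-to-noise for antibody binding to printed compounds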
condition parameters: higher = more signal
Listed compounds paired with reported composite z-score

compound smiles	composite z-score
COCCOC(=O)N1C(=O)[C@@]2(c3cc(C#CC4=CCCCC4)ccc31)[C@H](c1ccc(O)cc1)N1[C@H](c3ccccc3)[C@H](c3ccccc3)OC(=O)[C@H]1[C@@H]2C(=O)N1CCN(c2ncccn2)CC1	-0.152
COC(=O)[C@@]1(Cc2ccccc2)[C@H]2c3cc(C(=O)N(C)C)n(Cc4c(CO)[nH]cc(C)c4=O)c3C[C@H]2CN1C(=O)c1ccccc1	-0.0963
COc1ccc([Si](C)(C)[C@@H]2[C@@H](CC(=O)N(CCO)Cc3ccccc3)O[C@]3(C(=O)N(Cc4cccc(N5C(=O)c6cccc7cccc5c67)c4)c4ccccc43)[C@H]2C)cc1	-0.0762
